- targetOrTestSystem: UniProt:Q9UBN7
- Sequence (Q9UBN7 whole entry): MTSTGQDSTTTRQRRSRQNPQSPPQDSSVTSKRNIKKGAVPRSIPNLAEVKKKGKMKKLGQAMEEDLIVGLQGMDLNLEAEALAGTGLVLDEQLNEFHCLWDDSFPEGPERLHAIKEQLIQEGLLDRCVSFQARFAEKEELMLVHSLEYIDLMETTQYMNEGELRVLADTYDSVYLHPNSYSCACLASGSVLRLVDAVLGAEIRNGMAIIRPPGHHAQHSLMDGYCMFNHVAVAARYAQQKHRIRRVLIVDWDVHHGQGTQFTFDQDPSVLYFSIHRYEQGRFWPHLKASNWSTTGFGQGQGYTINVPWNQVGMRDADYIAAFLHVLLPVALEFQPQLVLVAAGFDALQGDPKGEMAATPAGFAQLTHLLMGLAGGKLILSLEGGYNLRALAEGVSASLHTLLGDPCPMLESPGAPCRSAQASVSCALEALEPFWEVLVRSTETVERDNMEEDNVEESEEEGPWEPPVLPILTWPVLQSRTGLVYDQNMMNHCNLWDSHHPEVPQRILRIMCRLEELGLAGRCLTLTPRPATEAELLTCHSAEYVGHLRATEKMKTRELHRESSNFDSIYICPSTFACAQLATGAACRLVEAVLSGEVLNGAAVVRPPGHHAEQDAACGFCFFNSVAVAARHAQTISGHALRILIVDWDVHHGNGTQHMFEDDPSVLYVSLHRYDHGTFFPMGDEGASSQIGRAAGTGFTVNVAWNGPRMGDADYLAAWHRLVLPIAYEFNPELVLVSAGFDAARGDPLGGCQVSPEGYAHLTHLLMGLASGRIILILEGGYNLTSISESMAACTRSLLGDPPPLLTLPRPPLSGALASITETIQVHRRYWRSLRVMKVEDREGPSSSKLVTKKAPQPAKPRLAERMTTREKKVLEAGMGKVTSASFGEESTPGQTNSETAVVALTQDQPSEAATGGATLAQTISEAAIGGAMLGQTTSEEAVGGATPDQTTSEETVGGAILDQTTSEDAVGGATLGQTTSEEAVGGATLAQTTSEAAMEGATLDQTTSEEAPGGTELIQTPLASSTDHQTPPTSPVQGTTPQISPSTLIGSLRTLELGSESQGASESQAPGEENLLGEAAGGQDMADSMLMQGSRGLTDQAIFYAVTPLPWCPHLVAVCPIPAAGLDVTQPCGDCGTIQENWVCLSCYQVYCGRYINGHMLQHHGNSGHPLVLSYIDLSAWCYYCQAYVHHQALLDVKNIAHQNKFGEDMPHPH
- experimentalProtocol: Inhibition of recombinant human HDAC6 using Boc-L-Lys(acetyl)-MCA as substrate by fluorogenic enzymatic assay
propertyMeasured: Kd (µM)

| compoundStructureString | propertyMeasured | modifierSign | valueReported |
| --- | --- | --- | --- |
| Cc1ccc(NC(=O)C(F)(F)C(F)(F)C(F)(F)C(F)(F)C(F)(F)C(F)(F)C(=O)NO)cc1 | Kd | > | 100 |
| CC(=O)Nc1ccc(NC(=O)C(F)(F)C(F)(F)C(F)(F)C(F)(F)C(F)(F)C(F)(F)C(=O)NO)cc1 | Kd | = | 9.2 |
| O=C(NO)C(F)(F)C(F)(F)C(F)(F)C(F)(F)C(F)(F)C(F)(F)C(=O)Nc1ccc(I)cc1 | Kd | = | 4.2 |
| N#Cc1ccc(NC(=O)C(F)(F)C(F)(F)C(F)(F)C(F)(F)C(F)(F)C(F)(F)C(=O)NO)cc1 | Kd | = | 71 |
| CCc1cccc(NC(=O)C(F)(F)C(F)(F)C(F)(F)C(F)(F)C(F)(F)C(F)(F)C(=O)NO)c1 | Kd | = | 1.3 |
